# System: OCI-LY10
# testSummary: CTG Cell Viability Assay - OCI-LY10
# Type: cell-based, human
# conditionInfo: Homo sapiens, OCI-Ly10, 96 h, OCI-LY10, 4 days; read-out: CTG Cell Viability Assay - OCI-LY10: Average external-IC50
# Procedure: Compound-mediated viability effect on OCI-LY10 or TMD8 was quantitatively determined using the CellTiter-Glo® Luminescent Cell Viability Assay kit from Promega (Catalog number G7570) following manufacturer's recommended procedures. […] The data was then analyzed by software Prism 7.0 from GraphPad and the dose response curves were fit using a three-parameter logistic equation to calculate IC50.
pIC50: −log10 of the molar value.
recordedMetric: pIC50

In the examples that follow, each entry is paired with its recorded pIC50.
{"molecule": "CN(CCc1ccc(CCNc2cccc3c2C(=O)N(C2CCC(=O)NC2=O)C3=O)cc1)C[C@H]1CC[C@H](n2cc(NC(=O)c3cnn4ccc(N5C[C@H]6C[C@@H]5CO6)nc34)c(C(F)F)n2)CC1 (stereo partly drawn)", "targetOrTestSystem": "OCI-LY10", "pIC50": "7.00 to 7.30"}
{"molecule": "CN(CCN1CCO[C@@H](CCNc2cccc3c2C(=O)N(C2CCC(=O)NC2=O)C3=O)C1)C[C@H]1CC[C@H](n2cc(NC(=O)c3cnn4ccc(N5C[C@H]6C[C@@H]5CO6)nc34)c(C(F)F)n2)CC1 (stereo partly drawn)", "targetOrTestSystem": "OCI-LY10", "pIC50": "7.00 to 7.30"}

For the next question, use this molecule.
Enquiry: pIC50 for CN1C(=O)CCC(n2c(=O)n(C)c3c(CN4CCC(N(C)C[C@H]5CC[C@H](n6cc(NC(=O)c7coc(-c8ccnc(NCC9CC9)c8)n7)c(C(F)F)n6)CC5)CC4)cccc32)C1=O (stereo partly drawn) ?
Return: < 6.00

* * *

Measured pIC50 values are reported for all entries that follow.
# Tested on: OCI-LY10
# testSummary: CTG Cell Viability Assay - OCI-LY10
# Type: cell-based, human
# conditionInfo: Homo sapiens, OCI-Ly10, 96 h, OCI-LY10, 4 days; read-out: CTG Cell Viability Assay - OCI-LY10: Average external-IC50
pIC50: −log10 of the molar value.

In the examples that follow, each entry is paired with its recorded pIC50.
{"compound": "Cn1c(=O)n(C2CCC(=O)NC2=O)c2ccc(CCCOC3CCN(C[C@H]4CC[C@H](n5cc(NC(=O)c6cnn7ccc(N[C@@H]8CCCC[C@@H]8O)nc67)c(C(F)F)n5)CC4)CC3)cc21 (some centres unmarked)", "targetOrTestSystem": "OCI-LY10", "pIC50": "< 6.00"}
{"compound": "CN(C[C@H]1CC[C@H](n2cc(NC(=O)c3cnn4ccc(NCCC(C)(C)O)nc34)c(C(F)F)n2)CC1)[C@H]1CC[C@H](Nc2cccc3c2C(=O)N(C2CCC(=O)NC2=O)C3=O)CC1 (some centres unmarked)", "targetOrTestSystem": "OCI-LY10", "pIC50": "> 7.30"}
{"compound": "CC[C@@H]1[C@H](F)C(=O)N[C@@H]1COc1ncc(C#C[C@H]2CC[C@@H](CN(C)CCCOCCCc3ccc4c(c3)n(C)c(=O)n4C3CCC(=O)NC3=O)CC2)c2cc(C(N)=O)c(OC)cc12 (some centres unmarked)", "targetOrTestSystem": "OCI-LY10", "pIC50": "< 6.00"}
{"compound": "CN(C[C@H]1CC[C@H](n2cc(NC(=O)c3cnn4ccc(N[C@@H]5CCCC[C@@H]5O)nc34)c(C(F)F)n2)CC1)C1CCN(Cc2cccc3c2n(C)c(=O)n3C2CCC(=O)NC2=O)CC1 (some centres unmarked)", "targetOrTestSystem": "OCI-LY10", "pIC50": "< 6.00"}
{"compound": "CN(CC1CCN(Cc2cccc3c2n(C)c(=O)n3C2CCC(=O)NC2=O)CC1)C[C@H]1CC[C@H](n2cc(NC(=O)c3coc(-c4ccnc(NCC5CC5)c4)n3)c(C(F)F)n2)CC1 (some centres unmarked)", "targetOrTestSystem": "OCI-LY10", "pIC50": "> 7.30"}
{"compound": "O=C1CCC(N2C(=O)c3cccc(NCCCCOC4CCN(C[C@H]5CC[C@H](n6cc(NC(=O)c7coc(-c8ccnc(NCC9CC9)c8)n7)c(C(F)F)n6)CC5)CC4)c3C2=O)C(=O)N1 (some centres unmarked)", "targetOrTestSystem": "OCI-LY10", "pIC50": "> 7.30"}
{"compound": "CN(C(=O)CCCNc1cccc2c1C(=O)N(C1CCC(=O)NC1=O)C2=O)C1CCN(C[C@H]2CC[C@H](n3cc(NC(=O)c4cnn5ccc(N6C[C@H]7C[C@@H]6CO7)nc45)c(C(F)F)n3)CC2)CC1 (some centres unmarked)", "targetOrTestSystem": "OCI-LY10", "pIC50": "> 7.30"}
{"compound": "Cn1c(=O)n(C2CCC(=O)NC2=O)c2cccc(CCCOCCOCCNC[C@H]3CC[C@H](n4cc(NC(=O)c5coc(-c6ccnc(NCC7CC7)c6)n5)c(C(F)F)n4)CC3)c21 (some centres unmarked)", "targetOrTestSystem": "OCI-LY10", "pIC50": "6.30 to 7.00"}
{"compound": "CN(CCCOCCCc1cccc2c1n(C)c(=O)n2C1CCC(=O)NC1=O)C[C@H]1CC[C@H](n2cc(NC(=O)c3coc(-c4ccnc(NCC5CC5)c4)n3)c(C(F)F)n2)CC1 (mixture of isomers)", "targetOrTestSystem": "OCI-LY10", "pIC50": "6.30 to 7.00"}
{"compound": "Cn1c(=O)n(C2CCC(=O)NC2=O)c2cccc(CCCO[C@H]3CC[C@H](CN4CCC(n5cc(NC(=O)c6cnn7ccc(N8CCOCC8)nc67)c(C(F)F)n5)CC4)CC3)c21 (some centres unmarked)", "targetOrTestSystem": "OCI-LY10", "pIC50": "7.00 to 7.30"}

Enquiry: pIC50 for CN(CCCN1CCO[C@@H](CNc2cccc3c2C(=O)N(C2CCC(=O)NC2=O)C3=O)C1)C[C@H]1CC[C@H](n2cc(NC(=O)c3cnn4ccc(N5C[C@H]6C[C@@H]5CO6)nc34)c(C(F)F)n2)CC1 (some centres unmarked) ?
Return: > 7.30

Enquiry: Moving on to the next compound: CN(CCOCCNCc1cccc2c1n(C)c(=O)n2C1CCC(=O)NC1=O)C[C@H]1CC[C@H](n2cc(NC(=O)c3coc(-c4ccnc(NCC5CC5)c4)n3)c(C(F)F)n2)CC1 (some centres unmarked)
Return: < 6.00

Enquiry: Moving on to the next compound: CN(CCOCCOCCCc1cccc2c1n(C)c(=O)n2C1CCC(=O)NC1=O)C(=O)[C@H]1CC[C@H](n2cc(NC(=O)c3coc(-c4ccnc(NCC5CC5)c4)n3)c(C(F)F)n2)CC1 (some centres unmarked)
Return: 6.30 to 7.00

* * *

# System: OCI-LY10
# testSummary: CTG Cell Viability Assay - OCI-LY10
# Type: cell-based, human
# conditionInfo: Homo sapiens, OCI-Ly10, 96 h, OCI-LY10, 4 days; read-out: CTG Cell Viability Assay - OCI-LY10: Average external-IC50
recordedMetric: IC50

In the examples that follow, each entry is paired with its recorded IC50.
{"compound": "Cn1c(=O)n(C2CCC(=O)NC2=O)c2ccc(CCOCCN3CCO[C@@H](CNC[C@H]4CC[C@H](n5cc(NC(=O)c6cnn7ccc(N8CCNCC8)nc67)c(C(F)F)n5)CC4)C3)cc21 (stereo partly shown)", "targetOrTestSystem": "OCI-LY10", "IC50": "> 1000 nM"}
{"compound": "O=C1CCC(n2c3cccc(CCCN4CC5(CCN(C[C@H]6CC[C@H](n7cc(NC(=O)c8cnn9ccc(N%10C[C@H]%11C[C@@H]%10CO%11)nc89)c(C(F)F)n7)CC6)CC5)C4)c3c3cccnc32)C(=O)N1 (stereo partly shown)", "targetOrTestSystem": "OCI-LY10", "IC50": "100 to 500 nM"}
{"compound": "CN(C[C@H]1CC[C@H](n2cc(NC(=O)c3cnn4ccc(N5C[C@H]6CC5CO6)nc34)c(C(F)F)n2)CC1)C1CCC2(CC1)CC(Nc1cccc3c1C(=O)N(C1CCC(=O)NC1=O)C3=O)C2 (stereo partly shown)", "targetOrTestSystem": "OCI-LY10", "IC50": "50 to 100 nM"}
{"compound": "Cn1c(=O)n(C2CCC(=O)NC2=O)c2cccc(CC[C@H]3CN(C[C@H]4CC[C@H](n5cc(NC(=O)c6cnn7ccc(N8CCCOCC8)nc67)c(C(F)F)n5)CC4)CCO3)c21 (stereo partly shown)", "targetOrTestSystem": "OCI-LY10", "IC50": "> 1000 nM"}
{"compound": "Cn1c(=O)n(C2CCC(=O)NC2=O)c2cccc(CCCN3CCO[C@H](CNC[C@H]4CC[C@H](n5cc(NC(=O)c6coc(-c7ccnc(NCC8CC8)c7)n6)c(C(F)F)n5)CC4)C3)c21 (stereo partly shown)", "targetOrTestSystem": "OCI-LY10", "IC50": "< 50 nM"}
{"compound": "CN(C(=O)c1coc(-c2ccnc(NCC3CC3)c2)n1)c1cn([C@H]2CC[C@H](CN(C)C3CCN(Cc4cccc5c4n(C)c(=O)n5C4CCC(=O)NC4=O)CC3)CC2)nc1C(F)F (stereo partly shown)", "targetOrTestSystem": "OCI-LY10", "IC50": "> 1000 nM"}

Enquiry: API: value(readout=IC50, system=OCI-LY10) for record CN(CCCOCC#Cc1ccc2c(c1)n(C)c(=O)n2C1CCC(=O)NC1=O)C[C@H]1CC[C@H](n2cc(NC(=O)c3coc(-c4ccnc(NCC5CC5)c4)n3)c(C(F)F)n2)CC1 (stereo partly shown)
Return: > 1000 nM

Enquiry: Moving on to the next compound: CC[C@@H]1[C@H](F)C(=O)N[C@@H]1COc1ccc(C#C[C@H]2CC[C@H](CN3CCC4(CC3)CC(CNc3cccc5c3C(=O)N(C3CCC(=O)NC3=O)C5=O)C4)CC2)c2cc(C(N)=O)c(OC)cc12 (stereo partly shown)
Return: < 50 nM

Enquiry: Moving on to the next compound: O=C1CCC(N2Cc3c(OC4CC5(CCN(C[C@H]6CC[C@H](n7cc(NC(=O)c8cnn9ccc(N%10C[C@H]%11C[C@@H]%10CO%11)nc89)c(C(F)F)n7)CC6)CC5)C4)cccc3C2=O)C(=O)N1 (stereo partly shown)
Return: < 50 nM

Enquiry: Moving on to the next compound: CC[C@@H]1[C@H](F)C(=O)N[C@@H]1COc1ccc(-c2ncn(CN(C)CCCOCCCc3cccc4c3n(C)c(=O)n4C3CCC(=O)NC3=O)n2)c2cc(C(N)=O)c(OC)cc12 (stereo partly shown)
Return: > 1000 nM
